The measured values listed here are drawn from PubChem BioAssay AID248.

system: L1210 leukemia ip in BDF1 mice, survival T/C; assay: NCI In Vivo Anticancer Drug Screen. Data for tumor model L1210 Leukemia (intraperitoneal) in B6D2F1 (BDF1) mice; details: endpoint: mean survival time; dose: 100.0 mg/kg/injection; schedule: Q01DX001 (ip); vehicle: carboxymethylcellulose (CMC); higher = longer survival
Toxic doses and inconclusive results are not listed.
T/C values by entry
assay-metric: T/C

• NNc1ncnc2c1ncn2C1OC(CO)C(O)C1O (configuration not stated) = 116 % of control
• O=C1c2ccccc2-c2cc(Cl)cc(Cl)c21 = 95 % of control
• O=[N+]([O-])c1c[nH]c2[nH]cnc(=S)c12 = 102 % of control
• CC(C)[N+]1=C(/C=C/c2ccc3cccnc3c2O)C(C)(C)c2ccccc21 = 103 % of control
• CCOC(=O)CCCNc1ccccc1C(=O)OC = 110 % of control
• O=S1(=O)c2ccccc2C2CC=CCC21 (configuration not stated) = 98 % of control
• O=[N+]([O-])c1ccc(O)c(/C=N\NC(=S)Nc2ccc3cn[nH]c3c2)c1 = 103 % of control
• O=C(O)CCC(NC(=O)c1ccccc1C(=O)O)C(=O)O (configuration not stated) = 94 % of control
• CN(C)c1ccc2c(c1)Cc1cc(NC(N)=O)ccc1-2 = 115 % of control
• COC(=O)NNC(=O)OC = 94 % of control
• CCCCCCCCCCCCSCCSCCCCCCCCCCCC = 93 % of control
• CCOC(=O)CCc1ccc(N=NN(C)C(C)CC)cc1 (configuration not stated) = 111 % of control
